Cited source for all entries: the supplement of paper PMC12042874

assay: amyloid nucleation score (Sup35N fusion, yeast selection) (log enrichment); library NNK2; higher = more nucleation; inactive = no reads after selection;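 further: zero at mode of non-aggregating sequences after 7 days selection at 30°C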
Observed property: amyloid nucleation score

> print(dat)
              substance         observed.property    result
1  PSIWSLDGSYFCSADENCKR  amyloid nucleation score  inactive
2  TAASISIDRTKSMPLSDRMY  amyloid nucleation score  inactive
3                EVTSTY  amyloid nucleation score     0.501
4                DIIVYM  amyloid nucleation score  inactive

----------
assay: amyloid nucleation score (Sup35N fusion, yeast selection) (log enrichment); library NNK1; higher = more nucleation; inactive = no reads after selection
Observed property: amyloid nucleation score

Below, each entry is followed by its recorded amyloid nucleation score result.
> print(dat)
              substance         observed.property    result
1  NTCEGGKCSYKVVSFLYLKY  amyloid nucleation score     0.497
2  MDFYVLPNCRQNGMLCERSC  amyloid nucleation score     0.508
3         KVASSDMSDLSTH  amyloid nucleation score  inactive
4  SRLLMKRIYYCVYPKGTTKK  amyloid nucleation score  inactive

Now for a further substance.
Problem: Item IPGTPMT has what recorded amyloid nucleation score?
Result: inactive

----------
assay: amyloid nucleation score (Sup35N fusion, yeast selection) (log enrichment); library NNK2; higher = more nucleation; inactive = no reads after selection
Observed property: amyloid nucleation score

> print(dat)
          sequence.code    result
1  GESEVLSRRRQFFGRLWVCM  inactive
2            WVLMYDICGS  inactive
3  FFTSSHNFCYLMGYNMIWFK  inactive

----------
test: amyloid nucleation score (Sup35N fusion, yeast selection) (log enrichment); library NNK3; higher = more nucleation; inactive = no reads after selection
Observed property: amyloid nucleation score

> print(dat)
              substance         observed.property    result
1  NYVCGVIAVNVVMNSSNNWR  amyloid nucleation score      2.66
2           ICYRRPTSSMP  amyloid nucleation score  inactive
3  CMSPYALGEISKRRVEVDSY  amyloid nucleation score  inactive
4  MGPSVMFCIDLSSWKHLIRL  amyloid nucleation score      0.87
5  GKSIYCWFWVKMQEAERLMS  amyloid nucleation score  inactive
6          SSEVYQALPPMS  amyloid nucleation score  inactive
7     SNFLLSSLIHLVPMMSL  amyloid nucleation score  inactive
8  SIPWLIVINTSHLLVIFNAI  amyloid nucleation score  inactive

In the following, a different substance is considered.
Problem: # amyloid nucleation score lookup, item TSTRHDGGFMVMWYLLGLTR
Result: inactive

----------
test: amyloid nucleation score (Sup35N fusion, yeast selection) (log enrichment); library NNK3; higher = more nucleation; inactive = no reads after selection
Observed property: amyloid nucleation score

> print(dat)
              substance    result
1  RFHVLINCFSAAGRGNPGSR      1.69
2  RVNRSLGIVSIECRWVVIRG  inactive
3               IIAPRLY  inactive

----------
assay: amyloid nucleation score (Sup35N fusion, yeast selection) (log enrichment); library NNK2; higher = more nucleation; inactive = no reads after selection
# key: entry, value: amyloid nucleation score
Respond using a number only.

Example cases with answers are listed next.
> print(dat)
      sequence.code         observed.property  recorded.number
1   LEPGAFRSIVFRIND  amyloid nucleation score            0.961
2  LVSYQVFSWSEPENSV  amyloid nucleation score           -0.239

Query sequence follows.
Problem: Item ITFFLRDMIAC has what recorded amyloid nucleation score?
Result: -0.907

----------
assay: amyloid nucleation score (Sup35N fusion, yeast selection) (log enrichment); library NNK2; higher = more nucleation; inactive = no reads after selection
amyloid nucleation score of 2 or higher: y. Under 2: n.

# example entries with known answers
> print(dat)
              substance  category.label
1  RKMGSFNHLSERVSYHCVWL               y
2     TFWTANISSADTSSFFY               n
3  WYNCSALWESLMFNGLQAVW               n

Problem: Check this substance for amyloid nucleation score at or above 2: LRFYPW
Result: n

Problem: Record CFSRIFICN ; criterion: amyloid nucleation score no lower than 2. Met?
Result: n

Problem: Decide: amyloid nucleation score of TAFVSHL >= 2?
Result: n

Problem: hey, is amyloid nucleation score for this one >= 2? TFFLITDTSVMEEM
Result: n

Problem: Check this substance for amyloid nucleation score at or above 2: VFSSNEYFPLYSVFIVSEIL
Result: y

Problem: Textbook exercise: given the entry QTTMKVSFSFLMRGGNPQVM , state whether its amyloid nucleation score is greater than or equal to 2.
Result: y

Problem: Threshold query (amyloid nucleation score >= 2) on PMAPSCLYRIIIMN
Result: n

Problem: Hi, just wondering whether HFNSTNPTRLLVDEEFFYFE shows amyloid nucleation score of 2 or higher.
Result: n

----------
test: amyloid nucleation score (Sup35N fusion, yeast selection) (log enrichment); library NNK1; higher = more nucleation; inactive = no reads after selection
Observed property: amyloid nucleation score

> print(dat)
          sequence.code  result
1  VCRVMTSLNEGKLSAECVLV   0.594

Problem: Name the reported amyloid nucleation score value associated with the sequence KRGLAVLGAPKQMQTACWGQ
Result: 0.229

Problem: Which amyloid nucleation score reading was recorded for the sequence YDKFPTLVMGAKRSGWG ?
Result: -0.761

Problem: Bench note: what amyloid nucleation score did TACPNSGNFERYGHYRSSSA show?
Result: 1.12

----------
assay: amyloid nucleation score (Sup35N fusion, yeast selection) (log enrichment); library NNK2; higher = more nucleation; inactive = no reads after selection
Observed property: amyloid nucleation score

> print(dat)
          sequence.code         observed.property    result
1  IFVNILNWLSVVRSSGFGSV  amyloid nucleation score  inactive
2            VVIHLLPSES  amyloid nucleation score  inactive
3  SQILTMWYLVIYYMSNRFGG  amyloid nucleation score  inactive

----------
test: amyloid nucleation score (Sup35N fusion, yeast selection) (log enrichment); library NNK2; higher = more nucleation; inactive = no reads after selection
Entries are grouped by amyloid nucleation score into these classes: group 1 (below -0.06), group 2 (-0.06 to below 0.7), group 3 (0.7 or more)

These recorded examples may help you get a feel for the data.
> print(dat)
              substance  category.label
1  LKRGYSFMRCLGVWRFQEPD         group 1
2  RPVWDNWLTGFLGMPMWGKT         group 2
3  LKCSFAVTDAWIGNRRAQRQ         group 3

Problem: # bin lookup: classify TYFYSWYGKYPADSRFY by its amyloid nucleation score
Result: group 1

Problem: Bin? SGCGCGLGMPTCRRSVRG
Result: group 2

Problem: Input ISVGGLSHMGTVGSLMKVTQ ; output its category
Result: group 2

Problem: Consider RGGTKRGELCDALNHQFSVL . To which amyloid nucleation score class does it belong?
Result: group 2

----------
Catalogue of amyloid nucleation score readings, one per entry.
experiment: amyloid nucleation score (Sup35N fusion, yeast selection) (log enrichment); library NNK2; higher = more nucleation; inactive = no reads after selection
Give the value as a plain number.

// worked examples, amyloid nucleation score included
> print(dat)
              substance         observed.property  recorded.number
1            QESWHNYESS  amyloid nucleation score           -0.805
2  SLFCVYYNDSSLLSYSVWQI  amyloid nucleation score             5.75
3  LLEVGSKKCGHPLSTYSKAN  amyloid nucleation score            0.463
4    VMSNFFVLRNGCWPMGRG  amyloid nucleation score             6.12
5  TISWFLETYVRSLFPRVGRG  amyloid nucleation score           -0.035

Now consider the entry below.
Problem: For DIWKTQ , what is its reported amyloid nucleation score?
Result: 0.218

----------
assay: amyloid nucleation score (Sup35N fusion, yeast selection) (log enrichment); library NNK3; higher = more nucleation; inactive = no reads after selection
Observed property: amyloid nucleation score

> print(dat)
              substance    result
1  NLKFRRFTGNMCSTPKVCLK  inactive
2  SYVDLYVGWLNSWMYVMRSA  inactive
3  CNMPGLVDDFLCHGICNNVV  inactive
4     CGVSWTVSIITDTFICN      2.76
5  EHGMVENRQRRFCLDWWDGM  inactive
6  LDEGPPSAWVFATKTNFCES  inactive
7         CCAGSLLLNRVQV  inactive
8          ATFRMGRKVPWS      1.01

Problem: # query: amyloid nucleation score of entry HSPKPKGWFDGTNSRDGKLY
Result: inactive

Problem: Report amyloid nucleation score for WRSASGVD please.
Result: inactive

Problem: Record request: amyloid nucleation score value, item TLCSHYYVV
Result: inactive

Problem: Quick one: amyloid nucleation score for IVNFACCVWSLYSSREFNML ?
Result: 3.22

Problem: Looking for the measured amyloid nucleation score of SGLACRYCTMVGCNLNYNYW , can you help?
Result: 2.58

Problem: Requested read-out: amyloid nucleation score. Entry: FLLDMGVNALSW
Result: inactive

Problem: Form field: reported amyloid nucleation score of IFLIPYA
Result: inactive

Problem: Name the recorded amyloid nucleation score for DQGDRSFCSNLRLGYGVRAW .
Result: inactive

Problem: Reported amyloid nucleation score for DMNSACCVWHSVFYSEFYVI : what is it?
Result: 2.19

Problem: Param item = RFWCLVVCTRLVHMENGRCS ; retrieve measured amyloid nucleation score.
Result: inactive

Problem: Suppose we examine the substance WSKHVCLFENSKSPHFSEDS ; what amyloid nucleation score value has been reported?
Result: inactive

Problem: Please report the recorded amyloid nucleation score for ILCAFTRVWCYTNGPYESGR .
Result: 2.72
